molecular target: BTK (Homo sapiens); test: biochemical; conditions: read-out: BTK inhibition (%), 0.75 uM BTK, […] probe 3l, 15 min preincubation
Sequence (Q06187 402-655 limits assumed): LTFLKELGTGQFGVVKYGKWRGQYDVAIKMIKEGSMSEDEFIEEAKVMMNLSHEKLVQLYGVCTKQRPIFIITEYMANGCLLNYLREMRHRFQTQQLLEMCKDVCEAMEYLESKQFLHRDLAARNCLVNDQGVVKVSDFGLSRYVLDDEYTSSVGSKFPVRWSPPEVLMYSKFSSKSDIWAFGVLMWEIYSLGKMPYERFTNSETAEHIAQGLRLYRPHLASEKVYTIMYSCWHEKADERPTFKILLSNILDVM
Experimental Readout: inhibition at 10 µM (%)
Provide the reading as a plain figure in %.

Give its inhibition at 10 µM value. Item: `C[C@@H]1CCO[C@H]2Cn3cc(C(=O)NCc4ccc(F)cc4F)c(=O)c(O)c3C(=O)N12`
30.4

Give its inhibition at 10 µM value. Item: `O=c1cc(-c2ccc(O)cc2)oc2cc(O)c([C@@H]3O[C@H](CO)[C@@H](O)[C@H](O)[C@H]3O)c(O)c12`
11.6

Give its inhibition at 10 µM value. Item: `CC1=C(/C=C/C(C)=C/C=C/C(C)=C\C(=O)O)C(C)(C)CCC1`
-42.1

Give its inhibition at 10 µM value. Item: O=C(O)C(O)Cc1ccc(O)c(O)c1 (stereo not drawn)
18.7

Give its inhibition at 10 µM value. Item: `COc1ccc(Cl)cc1NC(=O)Nc1cc(C)nc2ccccc12`
9

Give its inhibition at 10 µM value. Item: `O=C(Nc1ccncc1)c1cc([N+](=O)[O-])ccc1Cl`
10.9

Give its inhibition at 10 µM value. Item: `Cc1cccc(C)c1NC(=O)c1cc(S(N)(=O)=O)c(Cl)cc1O`
23.2

Give its inhibition at 10 µM value. Item: `CCC1=C[C@@H]2CN3CCc4c([nH]c5ccccc45)[C@@](C(=O)OC)(C2)[C@@H]13`
8.6

Give its inhibition at 10 µM value. Item: `CCCc1cc(C)[nH]c(=O)c1CNC(=O)c1cc(-c2ccc(N3CCN(C(C)C)CC3)nc2)cc2c1cnn2C(C)C`
-29.3

Give its inhibition at 10 µM value. Item: `CONC(=O)c1ccccc1Nc1cc(Nc2cc(C)nn2C(C)C)ncc1Cl`
-10.3

Give its inhibition at 10 µM value. Item: `C=C1C(=O)O[C@@H]2C[C@@]3(C)CCCC(=C)[C@@H]3C[C@H]12`
15.9

Give its inhibition at 10 µM value. Item: `COc1ccccc1Oc1c(NS(=O)(=O)c2ccc(C(C)(C)C)cc2)nc(-c2ncccn2)nc1OCCO`
-7.8

Give its inhibition at 10 µM value. Item: CC(O)(CS(=O)(=O)c1ccc(F)cc1)C(=O)Nc1ccc(C#N)c(C(F)(F)F)c1 (stereo not drawn)
11.7

Give its inhibition at 10 µM value. Item: O=C(O)CCCCCCCC(O)C(O)CCCCCCO (stereo not drawn)
-13.1

Give its inhibition at 10 µM value. Item: `N#CC[C@H](C1CCCC1)n1cc(-c2ncnc3[nH]ccc23)cn1`
28.3

Give its inhibition at 10 µM value. Item: `CC[C@H]1OC(=O)C[C@@H](OC(C)=O)[C@H](C)[C@@H](O[C@@H]2O[C@H](C)[C@@H](O[C@H]3C[C@@](C)(O)[C@@H](OC(=O)CC(C)C)[C@H](C)O3)[C@H](N(C)C)[C@H]2O)[C@@H](CC=O)C[C@@H](C)C(=O)/C=C/C(C)=C/[C@@H]1CO[C@@H]1O[C@H](C)[C@@H](O)[C@@H](OC)[C@H]1OC`
-20.1

Give its inhibition at 10 µM value. Item: `C=CC[C@@H]1/C=C(\C)C[C@H](C)C[C@H](OC)[C@H]2O[C@@](O)(C(=O)C(=O)N3CCCC[C@H]3C(=O)O[C@H](/C(C)=C/[C@@H]3CC[C@@H](O)[C@H](OC)C3)[C@H](C)[C@@H](O)CC1=O)[C@H](C)C[C@@H]2OC`
-2.8

Give its inhibition at 10 µM value. Item: `CCCc1cc(=O)[nH]c(=S)[nH]1`
3.1

Give its inhibition at 10 µM value. Item: `CS(=O)(=O)Nc1cc2occ(NC=O)c(=O)c2cc1Oc1ccccc1`
6.2

Give its inhibition at 10 µM value. Item: `Cc1[nH]c(/C=C2\C(=O)Nc3ccc(S(=O)(=O)N(C)c4cccc(Cl)c4)cc32)c(C)c1C(=O)N1CCN(C)CC1`
6.9

Give its inhibition at 10 µM value. Item: `COc1cc2nc(N3CCN(C(=O)c4ccco4)CC3)nc(N)c2cc1OC`
-6

Give its inhibition at 10 µM value. Item: `C[C@@H](Oc1cc(-n2cnc3ccc(CN4CCN(C)CC4)cc32)sc1C(N)=O)c1ccccc1C(F)(F)F`
0.7

Give its inhibition at 10 µM value. Item: `CCC[C@H](NC(=O)/C(C#N)=C/c1cccc(Br)n1)c1ccccc1`
24.8

Give its inhibition at 10 µM value. Item: `COc1ccc(-c2coc3cc(O)cc(O)c3c2=O)cc1`
2.3

Give its inhibition at 10 µM value. Item: `CCNC(=O)Nc1ccc(-c2nc(N3CCOC[C@@H]3C)c3c(n2)C(C)(C)S(=O)(=O)C3)cc1`
-22.8

Give its inhibition at 10 µM value. Item: `O=C(O)c1ccc(Br)c(O)c1`
-23.9

Give its inhibition at 10 µM value. Item: `Cc1cc(Nc2cc(N)ncn2)c(=O)n2c1C(=O)NC21CCCCC1`
6.9

Give its inhibition at 10 µM value. Item: `CNCC(=O)O`
-11.1

Give its inhibition at 10 µM value. Item: `CNCCc1ccccn1`
5.5

Give its inhibition at 10 µM value. Item: `Cc1c(N)nc([C@H](CC(N)=O)NC[C@H](N)C(N)=O)nc1C(=O)N[C@H](C(=O)N[C@H](C)[C@@H](O)[C@H](C)C(=O)N[C@H](C(=O)NCCc1nc(-c2nc(C(=O)NCCC[S+](C)C)cs2)cs1)[C@@H](C)O)[C@@H](O[C@@H]1O[C@@H](CO)[C@@H](O)[C@H](O)[C@@H]1O[C@H]1O[C@H](CO)[C@@H](O)[C@H](OC(N)=O)[C@@H]1O)c1cnc[nH]1`
7.7

---

biological target: BTK (Homo sapiens); experiment: biochemical; details: read-out: BTK inhibition (%), 0.75 uM BTK, […] probe 3l, 15 min preincubation
Rule: Criterion met for inhibition at 10 µM not less than 30%, Criterion not met for anything less.

Check if inhibition at 10 µM >= 30% (inclusive). Item: `CNC(=O)c1nn(C)c2c1C(C)(C)Cc1cnc(Nc3ccc(N4CCN(C)CC4)cc3)nc1-2`
Criterion met

Check if inhibition at 10 µM >= 30% (inclusive). Item: `O=C1C(Cl)=C(N2CCOCC2)C(=O)N1c1ccc(Cl)c(Cl)c1`
Criterion not met

Check if inhibition at 10 µM >= 30% (inclusive). Item: `CCOC(=O)CCC(=O)O[C@H]1[C@H](O[C@@H]2[C@@H](C)[C@H](O[C@H]3C[C@@](C)(OC)[C@@H](O)[C@H](C)O3)[C@@H](C)C(=O)O[C@H](CC)[C@@](C)(O)[C@H](O)[C@@H](C)C(=O)[C@H](C)C[C@@]2(C)O)O[C@H](C)C[C@@H]1N(C)C`
Criterion not met

Check if inhibition at 10 µM >= 30% (inclusive). Item: `C/C(=N\NC(=O)c1cccc(S(=O)(=O)N2CCOCC2)c1)c1cc(Cl)ccc1O`
Criterion not met

Check if inhibition at 10 µM >= 30% (inclusive). Item: `CN[C@@H]1[C@@H](O)[C@@H](O[C@@H]2[C@@H](O)[C@H](O[C@H]3OC(CN)=CC[C@H]3N)[C@@H](N)C[C@H]2N)OC[C@]1(C)O`
Criterion not met

Check if inhibition at 10 µM >= 30% (inclusive). Item: `Cn1c([N+](=O)[O-])cnc1COC(N)=O`
Criterion not met

Check if inhibition at 10 µM >= 30% (inclusive). Item: `O=C(O[C@@H]1Cc2c(O)cc(O)cc2O[C@H]1c1cc(O)c(O)c(O)c1)c1cc(O)c(O)c(O)c1`
Criterion met

Check if inhibition at 10 µM >= 30% (inclusive). Item: `CCOC(=O)O[C@]1(C(=O)OCCl)CC[C@H]2[C@@H]3CCC4=CC(=O)C=C[C@]4(C)[C@H]3[C@@H](O)C[C@@]21C`
Criterion not met

Check if inhibition at 10 µM >= 30% (inclusive). Item: `O=C1NC(=O)/C(=C/c2ccc(-c3ccc(F)cc3O)o2)S1`
Criterion met

Check if inhibition at 10 µM >= 30% (inclusive). Item: `OB1OCc2cc(F)ccc21`
Criterion not met

Check if inhibition at 10 µM >= 30% (inclusive). Item: `O=C1C(=Cc2cccnc2)C(=O)c2ccccc21`
Criterion not met

Check if inhibition at 10 µM >= 30% (inclusive). Item: `C=C(C)[C@H]1CC=C(C)CC1`
Criterion not met

Check if inhibition at 10 µM >= 30% (inclusive). Item: CC(C)CCN1c2nc(Nc3cc(F)c(O)c(F)c3)ncc2N(C)C(=O)C1C (stereo not drawn)
Criterion met

Check if inhibition at 10 µM >= 30% (inclusive). Item: `CC(=O)N1CCN(CCOc2ccc(C3CCN(C4=Nn5c(nnc5C(F)(F)F)CC4)CC3)cc2)CC1`
Criterion not met

Check if inhibition at 10 µM >= 30% (inclusive). Item: `CN1CCN(c2cccc(Nc3nc4c(-c5ccc(S(C)(=O)=O)cc5)cccn4n3)c2)CC1`
Criterion met
